Taken from PubChem BioAssay (NCI).

- Test system: SF-295 CNS
- assay-explanation: NCI-60 one-dose screen, 48 h (100 = growth as untreated, 0 = no growth, -100 = all killed)
- reported-conditions: 10 µM unless noted
Compounds without any hit were thinned out: in the full panel of roughly 83,000, 20% have a hit. Calls of active or inactive are those of the source. The calls were made as follows: active = growth percent below 10; inactive = the rest.
Quick reference for growth among some compounds
reported-metric: growth

>>> endpoint_value("Cc1ccc(C2=Nc3c(N)ncnc3NC(c3cccc(Nc4ccnc5cc(C(F)(F)F)ccc45)c3)C2)cc1 (stereo not given)")
"25% (inactive)"
>>> endpoint_value("COc1cc(OC)c(NC(=O)c2cc3ccccc3cc2O)cc1Cl")
"53.3% (inactive)"
>>> endpoint_value("COC(=O)c1c(C)nc(C)c2c1C(=O)C(Br)=C(NCc1ccccc1)C2=O")
"30.1% (inactive)"
>>> endpoint_value("O=S(=O)(NCCCNc1nccc(-c2c(-c3ccc(F)c(O)c3)nc3occn23)n1)c1ccc(Cl)cc1")
"103% (inactive)"
>>> endpoint_value("O=C(/C=C/c1ccccc1)Nc1ncc(Cc2ccccc2Cl)s1")
"-2.76% (active)"
>>> endpoint_value("N#Cc1c(-c2ccccc2)[nH]c2ncc(-c3ccccc3)n2c1=O")
"78.2% (inactive)"
>>> endpoint_value("Clc1ccc(/C=N\\N=C\\c2ccc(Cl)c(Cl)c2)cc1Cl")
"81.1% (inactive)"
>>> endpoint_value("N#Cc1c(-c2ccc(Cl)cc2)c(C#N)c2c(C#N)c(N)nn2c1N")
"83.3% (inactive)"
>>> endpoint_value("Cc1ccc(C[P+](c2ccccc2)(c2ccccc2)c2ccccc2)cc1")
"2.31% (active)"
>>> endpoint_value("Cc1[nH]c(C(=O)Nc2ccc(C(=O)N3CCN(c4cc5c(cc4F)c(=O)c(C(=O)O)cn5C4CC4)CC3)cc2OC(C)C)c(Cl)c1Cl")
"81.4% (inactive)"
>>> endpoint_value("O=C(Cn1cc(CSc2nc3ccccc3o2)nn1)Nc1ccc(F)cc1F")
"106% (inactive)"
>>> endpoint_value("CCCCNC(=O)Oc1ccc(/C(=C(/C)Cc2ccc(OC)cc2)c2ccc(OCCN3CCCC3)cc2)cc1")
"69.7% (inactive)"
>>> endpoint_value("COc1c(B(O)O)cccc1-c1cc(C)c2c(ccc3[nH]ncc32)n1")
"87.8% (inactive)"
>>> endpoint_value("Cn1cc(-c2csc(-c3c[nH]c4ccc(Br)cc34)n2)c2ccnc(Cl)c21")
"62.1% (inactive)"
>>> endpoint_value("CCCC/C(CC)=N\\NS(=O)(=O)c1ccc([N+](=O)[O-])cc1")
"108% (inactive)"
>>> endpoint_value("COCCOc1cc2ncnc(N3CCN(c4ncc(S(=O)(=O)N5CCCCC5)cn4)CC3)c2cc1OCCOC")
"99.6% (inactive)"
>>> endpoint_value("Nc1nc(-c2ccc(Cl)cc2)nc2c1sc(=S)n2-c1ccccc1")
"16.4% (inactive)"
>>> endpoint_value("C=CCn1c(C)nc2ccc(Nc3nc(Nc4ccc5nc(C)n(CC=C)c5c4)c4ccccc4n3)cc21")
"-67.5% (active)"
>>> endpoint_value("CC(=O)O[C@@H]1C[C@]2(C(C)C)O[C@@]1(C)[C@@H]1CCC(C)=C1[C@@H]2OC(=O)/C=C/c1ccccc1")
"92.1% (inactive)"
>>> endpoint_value("C=CCN=c1sc2c(n1NC(=O)c1cc3ccc1CCc1ccc(cc1)CC3)C(=O)c1ccccc1C2=O")
"69.2% (inactive)"
>>> endpoint_value("CN(C)CC1CCC(CN(C)C)C1=O (stereo not given)")
"133% (inactive)"
>>> endpoint_value("CN(C)c1ccc(-c2c(C#N)c(N)nn2C(=O)c2ccc(NC(=O)c3ccccn3)cc2)cc1")
"99% (inactive)"
>>> endpoint_value("COc1ccc(OC)c(/C=N/Nc2ncnc3c2c(C)nn3C)c1")
"99.7% (inactive)"
>>> endpoint_value("Fc1cccc(Oc2ccc(Nc3ncnc4ccc(OCCCN5CCOCC5)cc34)cc2Cl)c1")
"82.7% (inactive)"
>>> endpoint_value("Cc1ccc(/C=C2\\COc3ccc(O)cc3C2=O)cc1")
"105% (inactive)"
>>> endpoint_value("CCOC(=O)Cc1cnc(N/N=C(\\C)c2cc3ccccc3o2)s1")
"104% (inactive)"
>>> endpoint_value("O=C1C(Cl)=C(Nc2ccc(S(=O)(=O)N3CCOCC3)cc2)C(=O)c2ccccc21")
"99.7% (inactive)"
>>> endpoint_value("O=C1Nc2ccccc2/C1=C/c1nc2ccccc2c(=O)[nH]1")
"101% (inactive)"
>>> endpoint_value("Cc1ccc(CNc2ccc3nc(CCC4CCCCC4)[nH]c3c2)cc1")
"61.1% (inactive)"
>>> endpoint_value("O=C(NCCCl)Nc1ncccc1OCc1ccccc1")
"99.9% (inactive)"
>>> endpoint_value("COc1ccc(/C=C(\\C#N)n2nnc3cc(F)c(F)cc32)cc1")
"72.3% (inactive)"
>>> endpoint_value("O=C(Nc1ccc(Oc2cccc(F)c2)c(Cl)c1)c1cccnc1")
"40.1% (inactive)"
>>> endpoint_value("O=C(Nc1cccc(Cl)c1)Nc1cccc(Cn2c(=O)[nH]c3ccc(Oc4ncccn4)cc3c2=O)c1")
"36.2% (inactive)"
>>> endpoint_value("COc1ccc(NC2=C(I)C(=O)c3ncccc3C2=O)cc1")
"8.7% (active)"
>>> endpoint_value("O=C1C(Cl)=C(NCCCCCCNC2=C(Cl)C(=O)c3ccccc3C2=O)C(=O)c2ccccc21")
"114% (inactive)"
>>> endpoint_value("COc1cc(C2c3cc(OC(C)=O)c(OC)cc3CC3C(=O)OCC32)ccc1OC(C)=O (stereo not given)")
"112% (inactive)"
>>> endpoint_value("Oc1c(Br)cc(Br)c2ccc(Cn3cc(-c4ccccc4C(F)(F)F)nn3)nc12")
"104% (inactive)"
>>> endpoint_value("O=C(Nc1ccc(OS(=O)(=O)c2ccc(F)cc2)cc1)C1CCCCCC1")
"98% (inactive)"
>>> endpoint_value("C#COc1cccc(Nc2c(C#N)cnc3ncc(NC(=O)CCl)cc23)c1")
"42.1% [6.25 µM] (inactive)"
>>> endpoint_value("C[PH+](c1nc2ccccc2nc1[PH+](C)C(C)(C)C)C(C)(C)C.C[PH+](c1nc2ccccc2nc1[PH+](C)C(C)(C)C)C(C)(C)C.[Au+].[Cl-] (stereo not given)")
"-88% (active)"

---

- Tested on: A549/ATCC NSCLC
- assay-explanation: NCI-60 one-dose screen, 48 h (100 = growth as untreated, 0 = no growth, -100 = all killed)
- reported-conditions: 10 µM unless noted
The panel holds about 83,000 compounds, 20% with a hit somewhere; the sample as a whole holds those more often.
reported-metric: growth (%)

>>> endpoint_value("COC(=O)[C@]1(C)CCC[C@]2(C)[C@H]3C[C@H]4C(C(C)C)=C[C@]3(CC[C@H]21)[C@@H]1C(=O)CC[C@H](OCCC#N)[C@@H]14")
92.2
>>> endpoint_value("CCSC(SCC)c1ccc(Cl)cc1")
102
>>> endpoint_value("COC(=O)c1c(C)c2n(c1C)C(=O)C(c1ccccc1)=C2")
39.6
>>> endpoint_value("CNC(=O)c1ccccc1Oc1nc(Nc2cc(OC)c(OC)c(OC)c2)ncc1Br")
46.4
>>> endpoint_value("CNC(=O)c1[nH]cc(-c2ccc(OC)cc2)c1-c1cc(OC)c2c(c1OC)OCO2")
99.1
>>> endpoint_value("Nc1c(C(=O)Nc2ccccc2C(F)(F)F)sc2nc3c(cc12)CCC3")
90.4
>>> endpoint_value("COc1ccc(Nc2nc(-c3cc(O)c(C)c(C)c3O)cs2)cc1")
58
>>> endpoint_value("C#CCOc1cccc(Nc2ncnc3cc(NC(=O)C=C)ccc23)c1")
29.7
>>> endpoint_value("O=C1Nc2ccc(C(=O)O)cc2/C1=N/c1nnc(Sc2ccccc2)s1")
99.9
>>> endpoint_value("CSc1oc(C)nc1[P+](c1ccccc1)(c1ccccc1)c1ccccc1")
61.8
>>> endpoint_value("CC(=O)c1c(C)nc2ccccc2c1/C=C/c1ccc(F)cc1")
83.8
>>> endpoint_value("COc1ccc(C(=O)N2c3ccccc3Sc3ccccc32)c(OC)c1")
30.6
>>> endpoint_value("C=C1C(=O)O[C@H]2[C@H]1CC/C(COC(=O)C(=O)c1cn(C)c3ccc(Cl)cc13)=C\\CC[C@@]1(C)O[C@@H]21")
-62.5
>>> endpoint_value("COc1ccc(/C=N/C2=C(C#N)C(c3ccccc3)c3ccc4ccccc4c3O2)cc1 (stereo not drawn)")
16.8
>>> endpoint_value("C=C1CC[C@@H]2[C@](C)(COC(C)=O)[C@H](OC(C)=O)CC[C@@]2(C)[C@@H]1CC(Nc1ccc(S(=O)(=O)Nc2ncccn2)cc1)C1=CCOC1=O (stereo partly drawn)")
44.7
>>> endpoint_value("O=C(CN1CCOCC1)Nc1nc(-c2cc3ccccc3oc2=O)cs1")
105
>>> endpoint_value("Nc1c(C(=O)Nc2ccncc2)sc2nc3c(cc12)C(O)CCC3 (stereo not drawn)")
91.9
>>> endpoint_value("Nc1nc2ccc(-c3nc4ccc5[nH]ncc5c4c4c3CCCC4)cc2s1")
91.8
>>> endpoint_value("O=C1/C=C/[C@@H](O)[C@@H]2C[C@@H](O)C[C@H]2/C=C/CCC[C@H](CCc2ccccc2)O1")
16.6
>>> endpoint_value("Nc1ncnc2c1C(c1ccccc1)c1ccc3ccccc3c1O2 (stereo not drawn)")
86
>>> endpoint_value("COC(=O)c1c(C)nc(C)c2c1C(=O)C(Br)=C(NCc1ccccc1)C2=O")
18.2
>>> endpoint_value("COc1ccc(C2=Nc3c(N)nc(N)nc3NC(c3cccc(Nc4ccnc5cc(C(F)(F)F)ccc45)c3)C2)cc1 (stereo not drawn)")
63.1
>>> endpoint_value("Oc1ccc(Cl)cc1/C=N\\NC(=S)N/N=C/c1cc(Cl)ccc1O")
37.4
>>> endpoint_value("CCOC(=O)C1=C(c2ccccc2)N=C2SC=C(c3ccc(Cl)cc3)N2C1c1ccc(Cl)cc1 (stereo not drawn)")
77
>>> endpoint_value("CCN1CCN(C(=O)[C@]23CCC(C)(C)C[C@@H]2C2=CC[C@@H]4[C@@]5(C)CCC(=O)C(C)(C)[C@@H]5CC[C@@]4(C)[C@]2(C)CC3)CC1")
46.1
>>> endpoint_value("COc1ccc(C(C)=O)cc1S(=O)(=O)Nc1c(N)nc(SC)[nH]c1=O")
99.7
>>> endpoint_value("CCOC(=O)C1=C(C)NC(=O)NC1c1c(Cl)n(CCCl)c2ccccc12 (stereo not drawn)")
95.4
>>> endpoint_value("O=C1/C(=C/c2ccccc2O)CC/C1=C\\c1ccccc1O")
93.8
>>> endpoint_value("CC(C)=CCCC(C)c1ccc(C)c2c1OCN(CCCCCO)C2 (stereo not drawn)")
82.5
>>> endpoint_value("CCOC(=O)n1cc(-c2nonc2-c2cn(C(=O)OCC)c3ccc(Br)cc23)c2ccccc21")
74.4
>>> endpoint_value("Nc1cc(C(=O)NC[C@H]2CN(c3ccc(N4CCC(C(=O)O)CC4)cc3)C(=O)O2)ccc1Cl")
98.5
>>> endpoint_value("COc1ccc(F)cc1/C=C/C(=O)/C=C(/C=C/c1cc(F)ccc1OC)OB(F)F")
71.7
>>> endpoint_value("NC(=O)CSc1oc(-c2ccccc2)nc1S(=O)(=O)c1ccc(Br)cc1")
74.5
>>> endpoint_value("c1cc2c(ccc3[nH]c(-c4ccc5[nH]ncc5c4)c4c(c32)CCCC4)n1")
32.5
>>> endpoint_value("COc1ccc(/C=C(\\C#N)n2nnc3cc(Cl)ccc32)cc1")
14.4
>>> endpoint_value("CSc1nc2ccccc2cc1/C=[N+](\\[O-])c1ccccc1")
97.6
>>> endpoint_value("COc1cc2c(cc1OCCCN1CCN(CCCOc3cc4c(cc3OC)C(=O)N3CC(F)(F)C[C@H]3C=N4)CC1)N=C[C@@H]1CC(F)(F)CN1C2=O")
94.4
>>> endpoint_value("COC1=CC(c2ccc[nH]2)=N/C1=C\\c1[nH]c(C)c(CC(=O)OCc2ccccc2)c1CCC(=O)OCc1ccccc1")
5.29
